IC50 values, listed per item
Tested on: SUDHL10
Test: Induction of cytotoxicity in SUDHL10 cells, CellTiter-Glo (Assay 6)
Format: cell-based
Settings: SUDHL10, 5 hours incubation, median, read-out: Cytotox SUDHL10 [M] (median)
measured_endpoint: IC50

1) CCc1c2c(nn1C)COCc1ccccc1Cn1c(C(=O)O)c(CCCOc3cccc4ccccc34)c3ccc(F)c-2c31 (single isomer, unassigned; enantiomer 2) [Example 72] ... 2.6e-05 M
2) CCc1c2c(nn1C)COCc1ccccc1Cn1c(C(=O)O)c(CCCOc3cccc4cc(F)ccc34)c3ccc(Cl)c-2c31 (single isomer, unassigned; enantiomer 1) [Example 55] ... 1.3e-06 M
3) Cc1c2c(nn1C)COCc1cccnc1Cn1c(C(=O)O)c(CCCOc3cccc4ccccc34)c3cccc-2c31 (single isomer, unassigned; enantiomer 2) [Example 6] ... > 3.3e-05 M
4) Cc1c2c(nn1C)COCc1ccccc1Cn1c(C(=O)O)c(CCCOc3cccc4cc(F)ccc34)c3ccc(F)c-2c31 (single isomer, unassigned; enantiomer 1) [Example 65] ... 2.1e-06 M
5) Cc1c2c(nn1C)CN(C(=O)NCC1CCOCC1)Cc1ccccc1Cn1c(C(=O)O)c(CCCOc3cccc4ccccc34)c3cccc-2c31 (single isomer, unassigned; enantiomer 2) [Example 29] ... 2.3e-05 M

###

Target: MCL-1 (Homo sapiens, UniProt Q07820, K194A/K197A/R201A)
Sequence (Q07820 173-321 K194A/K197A/R201A, looked up): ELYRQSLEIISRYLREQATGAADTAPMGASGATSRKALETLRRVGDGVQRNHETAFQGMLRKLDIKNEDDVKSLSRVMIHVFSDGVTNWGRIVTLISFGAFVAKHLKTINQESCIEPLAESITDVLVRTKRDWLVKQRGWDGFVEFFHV
Assay: Protein-compound interaction assay, surface plasmon resonance (SPR assay, Assay 8)
Assay type: binding
Conditions: KD [M], SPR, immobilized MBP-MCL-1, 25° C.; geometric mean
Listed here: items and their measured Kd.
measured_endpoint: Kd (M)

1. CCc1c2c(nn1C)COCc1ccccc1Cn1c(C(=O)O)c(CCCOc3cccc4cc(F)ccc34)c3ccc(Cl)c-2c31 (single isomer, unassigned; enantiomer 1) ... 3.9e-09
2. Cc1c2c(nn1C)COCc1ccccc1Cn1c(C(=O)O)c(CCCOc3cccc4ccccc34)c3ccc(Cl)c-2c31 (single isomer, unassigned; enantiomer 1) ... 4.7e-09
3. Cc1c2c(nn1C)COCc1ncccc1Cn1c(C(=O)O)c(CCCOc3cccc4ccccc34)c3cccc-2c31 (single isomer, unassigned; enantiomer 1) ... 3.4e-09

###

Test system: SUDHL10
Test: Induction of cytotoxicity in SUDHL10 cells, CellTiter-Glo (Assay 6)
Format: cell-based
Conditions: SUDHL10, 5 hours incubation, median, read-out: Cytotox SUDHL10 [M] (median)
Experimental: Induction of Cytotoxicity Upon Treatment of Cells with Selected Compounds In principle, compounds that induce apoptosis will concomitantly induce cell cytotoxicity. Therefore, cytotoxicity assays were run in parallel in SUDHL5 and SUDHL10 cells. As a control, medium without cells was also added to the plate. Cells were incubated in a humidified incubator at 37° C. overnight. […] Finally, luminescence was read at 0.1 ms, with a gain of 3000 using the PHERAstar FS microplate reader (BMG Labtech).
measured_endpoint: IC50

1. Cc1c2c(nn1C)COCc1ccccc1Cn1c(C(=O)O)c(CCCOc3cccc4cc(F)ccc34)c3ccc(F)c-2c31 (single isomer, unassigned; enantiomer 2) [Example 66] ... 8.6e-06 M
2. Cc1c2c(nn1C)COCc1nccnc1Cn1c(C(=O)O)c(CCCOc3cccc4ccccc34)c3ccc(Cl)c-2c31 (single isomer, unassigned; enantiomer 1) [Example 46] ... 7e-06 M
3. Cc1c2c(nn1C)CN(C)Cc1ccccc1Cn1c(C(=O)O)c(CCCOc3cccc4ccccc34)c3cccc-2c31 (single isomer, unassigned; enantiomer 2) [Example 16] ... 3e-05 M
